Source of measurements: patent US20170190705A1

system: HePG2 hepatocarcinoma cells; assay type: cell-based; conditions: human, 24 h, 1 μM
REPORTED_METRIC: Cell viability

COMPOUND	REPORTED_METRIC	REPORTED_VALUE
COc1cc(-c2cc(-c3cccc(O)c3)cnc2N)cc(OC)c1OC [Compound K02288, reference compound]	Cell viability	106%
COc1cc(-c2cc(-c3ccc(N4CCNCC4)cc3)cnc2C)cc(OC)c1OC	Cell viability	92%
CS(=O)(=O)CCNCc1ccc(-c2ccc3ncnc(Nc4ccc(OCc5cccc(F)c5)c(Cl)c4)c3c2)o1 [Lapatinib, reference compound]	Cell viability	98%
COc1cc(-c2cc(-c3ccc(N4CCNCC4)cc3)cnc2N)ccc1Cl	Cell viability	101%
C#Cc1cccc(Nc2ncnc3cc(OCCOC)c(OCCOC)cc23)c1 [Erlotinib, reference compound]	Cell viability	99%
COc1cc(OC)cc(-c2cncc(-c3ccc(N4CCNCC4)cc3)c2)c1	Cell viability	101%
COc1cc(-c2cc(-c3ccc(N4CCNCC4)cc3)cnc2N)ccc1C	Cell viability	98%
CCCS(=O)(=O)Nc1ccc(F)c(C(=O)c2c[nH]c3ncc(-c4ccc(Cl)cc4)cc23)c1F [Vemurafenib, reference compound]	Cell viability	95%

* * *

biological target: caALK1 (Homo sapiens, UniProt P37023, Q201D); assay: Luciferase reporter assay constitutively active ALK1; conditions: read-out: Cell Based Assay caALK1 IC50
Sequence (P37023 22-503 Q201D): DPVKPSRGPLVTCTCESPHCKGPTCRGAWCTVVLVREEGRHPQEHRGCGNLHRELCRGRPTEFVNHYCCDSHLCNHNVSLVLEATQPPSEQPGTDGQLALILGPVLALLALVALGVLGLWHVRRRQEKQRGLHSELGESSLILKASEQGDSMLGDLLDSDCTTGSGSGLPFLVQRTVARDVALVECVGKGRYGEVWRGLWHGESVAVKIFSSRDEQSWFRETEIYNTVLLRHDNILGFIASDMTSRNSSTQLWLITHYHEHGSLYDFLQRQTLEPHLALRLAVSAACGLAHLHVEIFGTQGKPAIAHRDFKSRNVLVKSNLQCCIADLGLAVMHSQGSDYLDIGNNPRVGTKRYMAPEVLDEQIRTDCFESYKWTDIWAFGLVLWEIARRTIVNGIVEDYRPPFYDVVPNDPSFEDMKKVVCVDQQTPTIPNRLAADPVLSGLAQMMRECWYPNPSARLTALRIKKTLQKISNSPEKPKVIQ
REPORTED_METRIC: IC50 (nM)

COMPOUND	REPORTED_VALUE
COc1cc(-c2cc(-c3ccc(N4CCNCC4)cc3)cnc2N)cc(OC)c1OC [Compound 15]	24
COc1cc(-c2cncc(-c3ccc(N4CCNCC4)cc3)c2)cc(OC)c1OC [Compound 26]	202

* * *

target: caALK2 (Homo sapiens, UniProt Q04771, Q207D); assay: Luciferase reporter assay constitutively active ALK2; conditions: read-out: Cell Based Assay caALK2 IC50
Sequence (Q04771 21-509 Q207D): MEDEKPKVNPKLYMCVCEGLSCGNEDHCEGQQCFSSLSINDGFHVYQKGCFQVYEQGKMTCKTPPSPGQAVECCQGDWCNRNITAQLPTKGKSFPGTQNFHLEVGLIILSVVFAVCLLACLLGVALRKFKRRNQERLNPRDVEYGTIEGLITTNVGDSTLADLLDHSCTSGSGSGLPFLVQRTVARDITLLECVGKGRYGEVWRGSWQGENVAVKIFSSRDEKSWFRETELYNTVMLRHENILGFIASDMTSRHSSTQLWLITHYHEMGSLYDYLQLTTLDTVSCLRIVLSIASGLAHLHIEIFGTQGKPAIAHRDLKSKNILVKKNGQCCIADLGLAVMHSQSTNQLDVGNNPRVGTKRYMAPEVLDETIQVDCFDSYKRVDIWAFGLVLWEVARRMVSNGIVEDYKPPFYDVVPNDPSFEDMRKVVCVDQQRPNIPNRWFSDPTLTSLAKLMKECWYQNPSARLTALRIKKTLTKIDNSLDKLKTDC
REPORTED_METRIC: IC50 (nM)

SMILES_REPR	REPORTED_METRIC	UNITS_LABEL	REPORTED_VALUE
COc1cc(-c2cc(-c3ccc(N4CCNCC4)cc3)cnc2N)cc(OC)c1OC	IC50	nM	5

* * *

System: HePG2 hepatocarcinoma cells
Type: cell-based
Conditions: human, 4 h, 100 μM
Procedure: The cells were incubated for 2 h (37° C. and 5% CO2) and allowed to settle and attach. Compounds of interest or DMSO were diluted in DMEM and added at final compound concentrations of 1 μM, 10 μM, and 100 μM. […] Cell viability was determined by quantifying the ATP present in each well by adding 10 μL of CellTiter-Glo (Promega) per well and measuring the light output Spectramax L luminometer (Molecular Devices) with an integration time of one second per well. […]

SMILES_REPR	Cell viability
COc1cc(-c2cc(-c3cccc(NS(C)(=O)=O)c3)cnc2N)cc(OC)c1OC	95%
COc1cc(-c2cc(-c3ccc(N4CCNCC4)cc3)cnc2N(C)C)cc(OC)c1OC	95%
Nc1ncc(-c2ccc(N3CCNCC3)cc2)cc1-c1ccc2c(c1)OCCO2	91%
Nc1ncc(-c2ccc(N3CCNCC3)cc2)cc1-c1cccc2ncccc12	117%

* * *

Tested on: HePG2 hepatocarcinoma cells
Format: cell-based
Conditions: human, 4 h, 10 μM
Method: The cells were incubated for 2 h (37° C. and 5% CO2) and allowed to settle and attach. Compounds of interest or DMSO were diluted in DMEM and added at final compound concentrations of 1 μM, 10 μM, and 100 μM. […] Cell viability was determined by quantifying the ATP present in each well by adding 10 μL of CellTiter-Glo (Promega) per well and measuring the light output Spectramax L luminometer (Molecular Devices) with an integration time of one second per well. […]
REPORTED_METRIC: Cell viability (%)

COMPOUND	REPORTED_VALUE
CCN(CC)CCNC(=O)c1c(C)[nH]c(/C=C2\C(=O)Nc3ccc(F)cc32)c1C [Sunitinib, reference compound]	107
COc1cc(-c2cc(-c3ccc(N4CCNCC4)cc3)cnc2N)ccc1C [Compound 23]	101
Nc1ncc(-c2ccc(N3CCNCC3)cc2)cc1-c1cccc2ncccc12 [Compound 31]	103
COc1cc(-c2cnc(N)c(-c3cc(OC)c(OC)c(OC)c3)c2)ccc1O [Compound 12]	103
COc1cc(-c2cc(-c3ccc(N4CCNCC4)cc3)cnc2N)cc(OC)c1OC [Compound 15]	103
Cc1nc(Nc2ncc(C(=O)Nc3c(C)cccc3Cl)s2)cc(N2CCN(CCO)CC2)n1 [Dasatinib, reference compound]	107
COc1cc(-c2cc(-c3ccc(N4CCNCC4)cc3)cnc2C)cc(OC)c1OC [Compound 10]	100
COc1cc2ncnc(Nc3ccc(F)c(Cl)c3)c2cc1OCCCN1CCOCC1 [Gefitinib, reference compound]	105
COc1cc(-c2cc(-c3cccc(O)c3)cnc2N)cc(OC)c1OC [Compound K02288, reference compound]	107
COc1cc(-c2cncc(-c3ccc(N4CCNCC4)cc3)c2)cc(OC)c1OC [Compound 26]	103
COc1ccc(-c2cc(-c3ccc(N4CCNCC4)cc3)cnc2N)cc1 [Compound 20]	102
COc1cc(-c2cc(-c3ccc(N4CCNCC4)cc3)cnc2N(C)C)cc(OC)c1OC [Compound 25]	103
Nc1ncc(-c2ccc(N3CCNCC3)cc2)cc1-c1ccnc2ccccc12 [Compound 29]	104
COc1cccc(-c2cc(-c3ccc(N4CCNCC4)cc3)cnc2N)c1 [Compound 18]	101
Nc1ncc(-c2cccc(N3CCNCC3)c2)cc1-c1ccnc2ccccc12 [Compound 30]	104
COc1cc(-c2cnn3cc(-c4ccc(N5CCNCC5)cc4)cnc23)cc(OC)c1OC [Compound 32]	101
COc1cc(-c2cc(-c3ccc(N4CCNCC4)cc3)cnc2OC)cc(OC)c1OC [Compound 28]	102
